assay text: Clinical trial: plasma pharmacokinetics in patients
Assay type: in vivo, human
test conditions: human, plasma, oral; 10-140 mg QD, patients
endpoint label: Tmax

Record CCc1cc2ncc(CN3CCN(c4ccc(C(=O)NC)nc4)CC3)cc2[nH]c1=O . Reported Tmax: 0.5 to 3 h
